Values from ChEMBL document CHEMBL1143274

Tested on: Liver microsomes
Experiment: Metabolic stability in human liver microsomes assessed as intrinsic clearance
Format: ADME, Microsome
Set-up: unit not given here
Threshold 20. CL below it: TRUE. CL at it or above: FALSE.

[
  {
    "Compound": "CNC1=Nc2ncccc2C(c2ccco2)=NC1c1cc(C#CC(C)O)cs1 (stereo unspecified)",
    "Assigned label": "TRUE"
  },
  {
    "Compound": "CNC1=Nc2ncccc2C(c2ccco2)=NC1c1cccs1 (stereo unspecified)",
    "Assigned label": "TRUE"
  },
  {
    "Compound": "CNC1=Nc2ncccc2C(c2ccns2)=NC1c1cccs1 (stereo unspecified)",
    "Assigned label": "TRUE"
  },
  {
    "Compound": "CNC1=Nc2ncccc2C(c2ccco2)=NC1c1ccns1 (stereo unspecified)",
    "Assigned label": "FALSE"
  },
  {
    "Compound": "CNC1=Nc2ccc(Cl)cc2C(c2ccccc2)=NC1c1cccs1 (stereo unspecified)",
    "Assigned label": "FALSE"
  }
]

Please turn your attention to the following entry.
Q: I wonder whether CCNC1=Nc2ccccc2C(c2ccccc2)=NC1c1cccs1 (stereo unspecified) has CL below 20. Can you tell?
Result: FALSE

* * *

System: Liver microsomes
Experiment: Metabolic stability in human liver microsomes assessed as intrinsic clearance
Type: ADME, Microsome
Parameters: unit not given here
Entries and their CL values follow.

Examples from the recorded data:
[
  {
    "Compound": "CNC1=Nc2ncccc2C(c2ncco2)=NC1c1cccs1 (stereo not drawn)",
    "CL": "< 5"
  },
  {
    "Compound": "CNC1=Nc2c(ccc[n+]2[O-])C(c2ccccc2)=NC1c1cccs1 (stereo not drawn)",
    "CL": "< 14"
  }
]

Kindly consider the entry below.
Q: Please report CL with Liver microsomes for item CNC1=Nc2ncccc2C(c2nccs2)=NC1c1cccs1 (stereo not drawn) .
Result: < 14
